Data provenance: patent US20220389097A1

Each entry below carries its reported koff.
# test_system: T1, human TREM2-Fc (human, UniProt Q9NZC2 19-174)
# T1 construct: also called hTREM2; not shown: Fc part (captured by anti-human IgG1 Fc or protein A)
# T1 sequence: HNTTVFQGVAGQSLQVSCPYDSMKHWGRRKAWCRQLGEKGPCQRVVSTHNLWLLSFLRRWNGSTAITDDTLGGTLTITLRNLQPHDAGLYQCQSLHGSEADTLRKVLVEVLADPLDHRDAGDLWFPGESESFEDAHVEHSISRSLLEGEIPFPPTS
# test_name: SPR (Biacore T200), 37 C; TREM2-Fc on anti-human IgG1 Fc chip, Fab in solution
State the answer as a number, implicitly in s⁻¹.

{"columns": ["binder", "quantity", "value_observed"],
 "data": [
  ["Para.09 Fab with the 3.27H7 light chain (Fab, V domains shown, Fab fragment; also called Para.09 (3.27H7); Para.09-L27H7) VH: EVQLVETGGSLVQPGKSLRLTCATSGFPFSNVWLHWVRQSPEKHPEWVAHIKAKSDNYATYYAESVKGRFTISRDDSKSSVFLQMNSLKEEDTAIYYCTDILEYWGQGTLVTVSS VL: DVVLTQAPLSVSVTPGESASISCRSSRSLLTSKGITSLYWYLQKPGMSPHLLIYRMSNLASGIPDRFSGSGSETDFTLKISEVEPEDVGVYYCAQFLVYPYTFGAGTKLELK", "koff", "2.7e-05"],
  ["Para.09 Fab with the 3.10C2 light chain (Fab, V domains shown, also called Para.09 (3.10C2)) VH: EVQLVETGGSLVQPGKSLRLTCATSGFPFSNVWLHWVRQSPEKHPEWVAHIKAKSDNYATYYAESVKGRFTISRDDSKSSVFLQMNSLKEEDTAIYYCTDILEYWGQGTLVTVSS VL: DTVLTQAPLSLSVTPGESASISCRSSKSLLGVRDITSLYWYLQKPGKSPQLLIYRMSNLASGVPDRFSGSGSETDFTLKISEVETEDVGVYYCAQFLRYPYTFGPGTKLELK", "koff", "2.7e-05"],
  ["3.10C2 Fab (Fab, V domains shown, also called 3.10C2 (3.10C2); Rat3.10C2) VH: EVQLVETGGSLVQPGKSLKLTCATSGFPFSNVWMHWVRQSPEKQLEWIAHIKAKSDNYATYYAESVKGRFTISRDDSKTSIYLQMNSLKEDDTAIYYCTGLDYWGQGVMVTVSS VL: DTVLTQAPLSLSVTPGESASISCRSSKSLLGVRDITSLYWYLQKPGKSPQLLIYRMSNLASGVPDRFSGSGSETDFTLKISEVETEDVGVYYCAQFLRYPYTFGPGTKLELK", "koff", 0.00017],
  ["Para.09 Fab with the 3.18E5 light chain (Fab, V domains shown, also called Para.09 (3.18E5)) VH: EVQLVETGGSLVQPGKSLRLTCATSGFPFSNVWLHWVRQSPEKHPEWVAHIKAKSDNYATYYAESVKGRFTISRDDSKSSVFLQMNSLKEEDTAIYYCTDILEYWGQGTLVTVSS VL: DTVLTQAPLSVSVTPGESASISCRSNKSLLGIRDITSLYWYLQKPGKSPQLLIYRMSNLASGVPDRFSGSGSETDFTLKISEVETEDVGVYYCAQFLRYPYTFGPGTKLELK", "koff", "2.8e-05"]
]}

Turning now to a further binder:
Exercise: Entry Para.09 Fab with the 3.50G1 light chain (Fab, V domains shown, also called Para.09 (3.50G1)) VH: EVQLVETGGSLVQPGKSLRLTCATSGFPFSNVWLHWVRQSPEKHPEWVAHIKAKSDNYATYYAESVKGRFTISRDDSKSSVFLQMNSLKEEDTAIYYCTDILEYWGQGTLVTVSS VL: DTVLTQAPLSVSVTPGESASISCRSNKSLLGIRDITSLYWFLQKPGKSPQLLIYRMSNLASGVPDRFSGSGSETDFTLKISEVETEDVGVYYCAQFLRYPYTFGPGTKLELQ has what koff?
Solution: 5.8e-06
